# experimentalDetails: Solubility in organic solvents
# Assay type: physicochemical
# testParameters: organic solvent or mixture, thermodynamic from solid; Glycerin, room temperature; read-out: Solubility

molecule	resultUnit	solubility at 24 h
COc1ccc2c(c1)-c1nc(SCC(F)(F)F)n(C)c(=O)c1C(C)(C)C2 [CCG-211790]	µg/mL	1300

====

# experimentalDetails: Mammalian cell cytotoxicity assay (CCK-8)
# Type: cell-based, human
# testParameters: human, TZM-bL cells (HeLa cell derivative), TZM-bL cells, 25 µM, 24 h; read-out: Mean of cell viability

molecule	resultUnit	viability at 24 h, 25 µM
COc1ccc2c(c1)-c1nc(SCC(F)(F)F)n(C)c(=O)c1C(C)(C)C2	%	65.3

====

# experimentalDetails: Solubility in organic solvents
# Format: physicochemical
# testParameters: oil or lipid, thermodynamic from solid; Sunflower oil, room temperature; read-out: Solubility
recordedEndpoint: solubility at 24 h (mg/mL)

molecule	recordedEndpoint	measuredNumber
COc1ccc2c(c1)-c1nc(SCC(F)(F)F)n(C)c(=O)c1C(C)(C)C2	solubility at 24 h	20

====

# experimentalDetails: Solubility in water containing sodium dodecyl sulfate (SDS)
# Assay type: physicochemical
# testParameters: 2.0% (w/v) SDS solution, aqueous with cosolvent or surfactant or cyclodextrin, thermodynamic from solid; 2.0% (w/v) SDS, 48 h, 37°C, 200 rpm

molecule	solubility at 48 h, µg/mL
COc1ccc2c(c1)-c1nc(SCC(F)(F)F)n(C)c(=O)c1C(C)(C)C2	150

====

# experimentalDetails: Solubility in water containing sodium dodecyl sulfate (SDS)
# Type: physicochemical
# testParameters: 2.0% (w/v) SDS solution, aqueous with cosolvent or surfactant or cyclodextrin, thermodynamic from solid; 2.0% (w/v) SDS, 24 h, 37°C, 200 rpm

molecule	solubility at 24 h (µg/mL)
COc1ccc2c(c1)-c1nc(SCC(F)(F)F)n(C)c(=O)c1C(C)(C)C2	161

====

# experimentalDetails: Solubility in organic solvents
# Type: physicochemical
# testParameters: oil or lipid, thermodynamic from solid; Peanut oil, room temperature; read-out: Solubility

molecule	solubility at 24 h [mg/mL]
COc1ccc2c(c1)-c1nc(SCC(F)(F)F)n(C)c(=O)c1C(C)(C)C2	22.3

====

# experimentalDetails: Solubility in organic solvents
# Assay type: physicochemical
# testParameters: organic solvent or mixture, thermodynamic from solid; Ethanol, room temperature; read-out: Solubility

molecule	solubility at 24 h, mg/mL
COc1ccc2c(c1)-c1nc(SCC(F)(F)F)n(C)c(=O)c1C(C)(C)C2 [CCG-211790]	18.2

====

# experimentalDetails: Solubility in organic solvents
# Format: physicochemical
# testParameters: organic solvent or mixture, thermodynamic from solid; Acetonitrile, room temperature; read-out: Solubility

molecule	solubility at 24 h (mg/mL)
COc1ccc2c(c1)-c1nc(SCC(F)(F)F)n(C)c(=O)c1C(C)(C)C2	57.6

====

# experimentalDetails: Solubility in water containing sodium dodecyl sulfate (SDS)
# Format: physicochemical
# testParameters: 0.5% (w/v) SDS solution, aqueous with cosolvent or surfactant or cyclodextrin, thermodynamic from solid; 0.5% (w/v) SDS, 24 h, 37°C, 200 rpm
recordedEndpoint: solubility at 24 h (µg/mL)

molecule	recordedEndpoint	measuredNumber
COc1ccc2c(c1)-c1nc(SCC(F)(F)F)n(C)c(=O)c1C(C)(C)C2 [CCG-211790]	solubility at 24 h	32.9
